# TARGET DESC: Replicase polyprotein 1ab (Severe acute respiratory syndrome coronavirus 2)
# ASSAY EXPLANATION: SARS-CoV-2 in Vero E6
MEASURED METRIC: EC50 (nM)
Give just the number in nM; leave the unit off.

COMPOUND	TARGET DESC	MEASURED METRIC	REPORTED
COc1ccc(OCC(=O)N2C[C@@H]3CCC[C@@H]3C2C(=O)N[C@H](C=O)C[C@@H]2CCNC2=O)cc1 (stereo partly specified) [WO2022021841, 17]	Replicase polyprotein 1ab (Severe acute respiratory syndrome coronavirus 2)	EC50	24700
COc1ccc(OCC(=O)N2C[C@H]3[C@@H](C2C(=O)N[C@H](C=O)C[C@@H]2CCNC2=O)C3(C)C)cc1OC (stereo partly specified) [WO2022021841, 20]	Replicase polyprotein 1ab (Severe acute respiratory syndrome coronavirus 2)	EC50	1730
CC1(C)[C@@H]2C(C(=O)N[C@H](C=O)C[C@@H]3CCNC3=O)N(C(=O)COc3ccc(Br)cc3Cl)C[C@@H]21 (stereo partly specified) [WO2022021841, 31]	Replicase polyprotein 1ab (Severe acute respiratory syndrome coronavirus 2)	EC50	1180
CC1(C)[C@@H]2C(C(=O)N[C@H](C=O)C[C@@H]3CCNC3=O)N(C(=O)COc3cc(F)cc(F)c3)C[C@@H]21 (stereo partly specified) [WO2022021841, 34]	Replicase polyprotein 1ab (Severe acute respiratory syndrome coronavirus 2)	EC50	1540
COc1ccc(OCC(=O)N2C[C@H]3[C@@H](C2C(=O)N[C@H](C=O)C[C@@H]2CCNC2=O)C3(C)C)cc1F (stereo partly specified) [WO2022021841, 28]	Replicase polyprotein 1ab (Severe acute respiratory syndrome coronavirus 2)	EC50	4680

The compound listed as CC1(C)[C@@H]2C(C(=O)N[C@H](C=O)C[C@@H]3CCNC3=O)N(C(=O)COc3ccc(Cl)cc3)C[C@@H]21 (stereo partly specified) [WO2022021841, 43] shows EC50 equal to 530

Kindly note the recorded EC50 for O=C[C@H](C[C@@H]1CCNC1=O)NC(=O)C1[C@@H]2CCC[C@H]2CN1C(=O)CCc1cccc(F)c1 (stereo partly specified) [WO2022021841, 37] , which is 2970

Please fill in: EC50 reported for CC1(C)[C@@H]2C(C(=O)N[C@H](C=O)C[C@@H]3CCNC3=O)N(C(=O)COc3ccc(Cl)cc3Cl)C[C@@H]21 (stereo partly specified) [WO2022021841, 44] = 660

###

# TARGET DESC: Replicase polyprotein 1ab (Severe acute respiratory syndrome coronavirus 2)
MEASURED METRIC: pKi
Keep it numeric: pKi is minus log10 of the concentration in mol/L.

Reference set, count: 5
> print(dat)
                                   compound  measured.metric  reported
1  O=C[C@H](C[C@@H]1CCNC1=O)NC(=O)C1[C@@H]2CCC[C@H]2CN1C(=O)/C=C/c1ccc(Cl)cc1Cl (stereo partly drawn)              pKi      7.09
2  CC1CNC(=O)[C@@H]1C[C@H](NC(=O)C1[C@@H]2[C@H](CN1C(=O)COc1ccc(Cl)cc1Cl)C2(C)C)C(=O)CF (stereo partly drawn)              pKi      8.05
3  O=C[C@H](C[C@@H]1CCNC1=O)NC(=O)C1[C@@H]2CCC[C@H]2CN1C(=S)NCc1ccc(F)cc1 (stereo partly drawn)              pKi      7.52
4  O=C[C@H](C[C@@H]1CCNC1=O)NC(=O)C1[C@@H]2CCC[C@H]2CN1C(=S)NCc1cccc(F)c1 (stereo partly drawn)              pKi      7.43
5  O=C[C@H](C[C@@H]1CCNC1=O)NC(=O)C1[C@@H]2CCC[C@H]2CN1C(=O)COc1ccc2c(c1)OCCO2 (stereo partly drawn)              pKi      7.03

Field pKi (system: Replicase polyprotein 1ab (Severe acute respiratory syndrome coronavirus 2)) for entry CC(C)(Oc1ccc(Cl)cc1Cl)C(=O)N1Cc2ccccc2CC1C(=O)N[C@H](C=O)C[C@@H]1CCNC1=O (stereo partly drawn) = 7.04

Entry O=C[C@H](C[C@@H]1CCNC1=O)NC(=O)C1[C@@H]2CCC[C@H]2CN1C(=O)CCc1cccc(O)c1 (stereo partly drawn) , tested on Replicase polyprotein 1ab (Severe acute respiratory syndrome coronavirus 2), has a reported pKi of 7.51
